Sourced from ChEMBL document CHEMBL1201862

System: SN12C
measurement-description: NCI tumour cell line growth inhibition, 48 h
Where a name gives a salt, the structure may show the parent alone. Activity calls are given as the source filed them. Rule as the data show it: active = GI50 up to about 1.1 µM and inactive = higher.
Answer with one of the outcomes given here: Yes for active, No for inactive

Recorded results for 10 molecules are shown here.
molecule: O=[N+]([O-])C1(C2([N+](=O)[O-])CCCC2)CCCC1
class-label: No
//
molecule: O=c1[nH]c(Br)nc2c(Br)c[nH]c12
class-label: No
//
molecule: O=C1OC(=O)C2C1C1(c3ccccc3)OC2(c2ccccc2)c2c(Br)c(Br)c(Br)c(Br)c21 (stereo not given)
class-label: No
//
molecule: CC(=O)O/N=C(/C)c1ccccc1O
class-label: No
//
molecule: COc1ccc2c(=O)cc(-c3ccc(OC)c(OC)c3OC)oc2c1
class-label: No
//
molecule: C(=C1/CCCCC([n+]2ccccc2)=N1)/c1ccccc1
class-label: No
//
molecule: O=C(Nc1nnc(-c2c(Cl)c(Cl)c(Cl)c(Cl)c2-c2nc3cc(C(=O)c4ccccc4)ccc3[nH]2)o1)c1ccc(Cl)cc1
class-label: No
//
molecule: N#Cc1cccc(C2C(=O)c3ccc(C(=O)c4ccc5c(c4)C(=O)N(c4ccc(Oc6ccc(N7C(=O)c8ccc(C(=O)c9ccc%10c(c9)C(=O)N(c9cccc(C#N)c9)C%10=O)cc8C7=O)cc6)cc4)C5=O)cc3C2=O)c1 (stereo not given)
class-label: No
//
molecule: Cc1cc(C)c(S(=O)(=O)ONC(=O)OC(C)(C)C)c(C)c1
class-label: No
//
molecule: NC(=O)c1nnc2ccc(F)cc2c1N
class-label: No

What was the test verdict on `COc1ccc(/C=C/C(=O)c2cc(C(C)(C)C)c(O)c(C(C)(C)C)c2)cc1OC` ? No

Could you kindly confirm the outcome this assay logged for `CC(=O)NC1=C(NCCCl)C(=O)c2ccccc2C1=O` ? No

Assay outcome for `O=[N+]([O-])/C=C/c1cn(CCCCCCCCCCCCn2cc(/C=C/[N+](=O)[O-])c3ccccc32)c2ccccc12` : what was it? No

Hi team, can someone confirm the assay call for `CSC1=C(C(=O)Nc2ccccc2)C(N)=NC1=O` ? No

Answer briefly: the call reported for COc1ccc2c(c1)CCN1CCc3ccccc3CC21 (stereo not given) in this assay. No

Please share the test call associated with N=c1ccn2c(n1)O[C@H]1[C@H](O)[C@@H](CO)O[C@H]12 [ANCITABINE HYDROCHLORIDE] . No

Which result was noted for this molecule in the test: `Fc1nc(F)nc(-c2c3ccccc3c3n2CCS3)n1` No

Please let me know the test result on file for `CCCCNC(=S)Nn1c(-c2ccccc2)nc2ccccc2c1=O` . No

GET /call?item= O=C(OCCCl)C1OC(n2cc(F)c(=O)[nH]c2=O)CC1O (stereo not given) returns the recorded outcome of this test. No
